# Tested on: ST8814
# Measurement description: % inhibition of CellTiter-Glo viability at highest tested concentration (72 h), relative to DMSO and benzethonium chloride controls; higher = more inhibition
I'd be grateful if you could share measured % inhibition for these entries.

State the recorded % inhibition for this entry: CC(C)(C)NC(=O)[C@H]1CC[C@H]2[C@@H]3CC[C@H]4NC(=O)C=C[C@]4(C)[C@H]3CC[C@]12C [Finasteride] (max concentration tested 10000 nM) 6.23%

State the recorded % inhibition for this entry: Nc1ncnc2c1nc(N)n2[C@@H]1O[C@H](CO)[C@@H](O)[C@H]1O [8-amino-adenosine] (max concentration tested 50000 nM) 98.4%

State the recorded % inhibition for this entry: Cn1c(CCCC(=O)O)nc2cc(N(CCCl)CCCl)ccc21 [Bendamustine] (max concentration tested 10000 nM) -3.13%

State the recorded % inhibition for this entry: O=C(O)c1ccc(-c2c[nH]c3ncc(-c4ccccc4)cc23)cc1C1CCCC1 (max concentration tested 10000 nM) 7.81%

State the recorded % inhibition for this entry: Oc1ncc(N(CCCl)CCCl)c(O)n1 [Uracil mustard] (max concentration tested 10000 nM) 10.8%

State the recorded % inhibition for this entry: CN1CCN(c2ccc3nc(-c4c(N)c5c(F)cccc5[nH]c4=O)[nH]c3c2)CC1 [Dovitinib] (max concentration tested 10000 nM) -2.1%

State the recorded % inhibition for this entry: Cc1ccc(Nc2nccc(N(C)c3ccc4c(C)n(C)nc4c3)n2)cc1S(N)(=O)=O [Pazopanib] (max concentration tested 10000 nM) -2.02%

State the recorded % inhibition for this entry: CCNC(=O)c1noc(-c2cc(C(C)C)c(O)cc2O)c1-c1ccc(CN2CCOCC2)cc1 [NVP-AUY922] (max concentration tested 1000 nM) 98.2%

State the recorded % inhibition for this entry: CC(C)(C)c1cnc(CSc2cnc(NC(=O)C3CCNCC3)s2)o1 [SNS-032] (max concentration tested 10000 nM) 87.2%

State the recorded % inhibition for this entry: COc1cc2c(cc1O)CC[C@@H]1[C@@H]2CC[C@]2(C)[C@@H](O)CC[C@@H]12 [2-methoxyestradiol] (max concentration tested 10000 nM) 91.9%

State the recorded % inhibition for this entry: C[C@@H]1C[C@H]2[C@@H]3CCC4=CC(=O)C=C[C@]4(C)[C@@]3(F)[C@@H](O)C[C@]2(C)[C@@]1(O)C(=O)CO [Dexamethasone] (max concentration tested 10000 nM) 22.9%

State the recorded % inhibition for this entry: c1ccc([C@H]2CN3CCSC3=N2)cc1 [Levamisole] (max concentration tested 10000 nM) -0.0528%

State the recorded % inhibition for this entry: COc1cc2c(cc1-c1c(C)noc1C)ncc1[nH]c(=O)n([C@H](C)c3ccccn3)c12 [I-BET151] (max concentration tested 10000 nM) 69.7%

State the recorded % inhibition for this entry: FC(F)c1nc2ccccc2n1-c1nc(N2CCOCC2)nc(N2CCOCC2)n1 [ZSTK474] (max concentration tested 10000 nM) 69.7%

State the recorded % inhibition for this entry: COc1cc(Nc2ncc3c(n2)-c2ccc(Cl)cc2C(c2c(F)cccc2OC)=NC3)ccc1C(=O)O [Alisertib] (max concentration tested 10000 nM) 59.4%

State the recorded % inhibition for this entry: CC(C)C[C@H](NC(=O)[C@H](Cc1ccccc1)NC(=O)c1cnccn1)B(O)O [Bortezomib] (max concentration tested 1000 nM) 103%

State the recorded % inhibition for this entry: Cc1ccc(NC(=O)c2ccc(CN3CCN(C)CC3)cc2)cc1Nc1nccc(-c2cccnc2)n1 [Imatinib] (max concentration tested 10000 nM) 33.4%

State the recorded % inhibition for this entry: C[C@@]1(C(=O)Nc2ccc(F)nc2)CCCN1c1nc(Nc2cc(C3CC3)n[nH]2)c2cccn2n1 (max concentration tested 10000 nM) 93.2%

State the recorded % inhibition for this entry: CC[C@H](CC#N)OC(=O)N[C@@H](C)c1cccc(NC(=O)Nc2ccc(-c3cnco3)c(OC)c2)c1 [AVN944] (max concentration tested 10000 nM) 78.7%

State the recorded % inhibition for this entry: Cc1cc(C(C)Nc2ccccc2)c2nc(N3CCOCC3)cc(=O)n2c1 (stereo not drawn) [TGX-221] (max concentration tested 10000 nM) 21.4%

State the recorded % inhibition for this entry: CO[C@H]1C[C@@H]2CC[C@@H](C)[C@@](O)(O2)C(=O)C(=O)N2CCCC[C@H]2C(=O)O[C@H]([C@H](C)C[C@@H]2CC[C@@H](O)[C@H](OC)C2)CC(=O)[C@H](C)/C=C(\C)[C@@H](O)[C@@H](OC)C(=O)[C@H](C)C[C@H](C)/C=C/C=C/C=C/1C [Sirolimus] (max concentration tested 100 nM) 14.7%

State the recorded % inhibition for this entry: Nc1ncn([C@H]2C[C@H](O)[C@@H](CO)O2)c(=O)n1 [Decitabine] (max concentration tested 10000 nM) 18.8%

State the recorded % inhibition for this entry: NC1(c2ccc(-c3nc4ccn5c(=O)[nH]nc5c4cc3-c3ccccc3)cc2)CCC1 [MK-2206] (max concentration tested 1000 nM) 2.43%
